Just for reference, ChEMBL document CHEMBL4715796 is where these values come from.

- Tested on: Nonstructural protein 5A (Hepatitis C virus), Q5L478 [Y93H]
- test: Inhibition of NS5A Y93H mutant in Hepatitis C virus subtype 1a infected in human HuH7 cells assessed as reduction in viral replication by luciferase reporter gene assay
- Type: cell-based
- condition-set: Huh-7
readout: EC90 (nM)
A number alone suffices; assume nM.

Take a look at these entries with their results.
[
  {
    "compound": "COC(=O)N[C@H](C(=O)N1CCC[C@H]1c1ncc(-c2cc(F)c3c(c2)OC(c2ccc4c(c2)OC(C)(C)C4)n2c-3cc3cc(-c4cnc([C@@H]5CCCN5C(=O)[C@@H](NC(=O)OC)C(C)C)[nH]4)ccc32)[nH]1)C(C)C.O=C(O)C(F)(F)F.O=C(O)C(F)(F)F (some centres not stated)",
    "EC90 / nM": 0.2
  },
  {
    "compound": "COC(=O)N[C@H](C(=O)N1CCC[C@H]1c1ncc(-c2cc(F)c3c(c2)OC(c2ccc4c(c2)COCC4)n2c-3cc3cc(-c4cnc([C@@H]5CCCN5C(=O)[C@@H](NC(=O)OC)C(C)C)[nH]4)ccc32)[nH]1)C(C)C (some centres not stated)",
    "EC90 / nM": 2
  }
]

Lab note: COC(=O)N[C@H](C(=O)N1CCC[C@H]1c1ncc(-c2cc(F)c3c(c2)OC(c2ccc4c(c2)O[C@H](C)CC4)n2c-3cc3cc(-c4cnc([C@@H]5CCCN5C(=O)[C@@H](NC(=O)OC)C(C)C)[nH]4)ccc32)[nH]1)C(C)C (some centres not stated) gave EC90 of 0.7

Lab note: COC(=O)N[C@H](C(=O)N1CCC[C@H]1c1ncc(-c2ccc3c(c2)OC(c2ccc(-c4ccccc4)cc2)n2c-3cc3cc(-c4cnc([C@@H]5CCCN5C(=O)[C@@H](NC(=O)OC)C(C)C)[nH]4)ccc32)[nH]1)C(C)C (mixture of isomers) gave EC90 of 4.6

---

- test: Clearance in male Wistar Han rats at 2 mg/kg, iv administered post overnight fasting measured upto 24 hrs by LC-MS/MS analysis
- Assay type: ADME, organism-based
- condition-set: rat, in vivo
readout: clearance
// unit must come after the numeric part

Take a look at these entries with their results.
[
  {
    "molecule": "COC(=O)N[C@H](C(=O)N1CCC[C@H]1c1ncc(-c2cc(F)c3c(c2)OC(c2ccc4c(c2)OCCC4)n2c-3cc3cc(-c4cnc([C@@H]5CCCN5C(=O)[C@@H](NC(=O)OC)C(C)C)[nH]4)ccc32)[nH]1)C(C)C.O=C(O)C(F)(F)F.O=C(O)C(F)(F)F (stereo partly drawn)",
    "clearance": "8 mL/min/kg"
  },
  {
    "molecule": "COC(=O)N[C@H](C(=O)N1CCC[C@H]1c1ncc(-c2cc(F)c3c(c2)OC(c2ccc4c(c2)OC(C)(C)C4)n2c-3cc3cc(-c4cnc([C@@H]5CCCN5C(=O)[C@@H](NC(=O)OC)C(C)C)[nH]4)ccc32)[nH]1)C(C)C.O=C(O)C(F)(F)F.O=C(O)C(F)(F)F (stereo partly drawn)",
    "clearance": "7 mL/min/kg"
  }
]

With those in mind, consider the next molecule.
Lab note: COC(=O)N[C@H](C(=O)N1CCC[C@H]1c1ncc(-c2cc(F)c3c(c2)OC(c2ccc4c(c2)OCCC42CC2)n2c-3cc3cc(-c4cnc([C@@H]5CCCN5C(=O)[C@@H](NC(=O)OC)C(C)C)[nH]4)ccc32)[nH]1)C(C)C.O=C(O)C(F)(F)F.O=C(O)C(F)(F)F (stereo partly drawn) gave clearance of 15 mL/min/kg

---

- test: Half-life in male Wistar Han rats at 2 mg/kg, iv administered post overnight fasting measured upto 24 hrs by LC-MS/MS analysis
- Type: ADME, organism-based
- condition-set: rat, in vivo
Some molecules, each annotated with its measured half-life.
A number alone suffices; assume h.

[
  {
    "molecule": "COC(=O)N[C@H](C(=O)N1CCC[C@H]1c1ncc(-c2cc(F)c3c(c2)OC(c2ccc4c(c2)OCCC4)n2c-3cc3cc(-c4cnc([C@@H]5CCCN5C(=O)[C@@H](NC(=O)OC)C(C)C)[nH]4)ccc32)[nH]1)C(C)C.O=C(O)C(F)(F)F.O=C(O)C(F)(F)F (stereo partly drawn)",
    "half-life [h]": 5.8
  }
]

Lab note: COC(=O)N[C@H](C(=O)N1CCC[C@H]1c1ncc(-c2cc(F)c3c(c2)OC(c2ccc4c(c2)OC(C)(C)C4)n2c-3cc3cc(-c4cnc([C@@H]5CCCN5C(=O)[C@@H](NC(=O)OC)C(C)C)[nH]4)ccc32)[nH]1)C(C)C.O=C(O)C(F)(F)F.O=C(O)C(F)(F)F (stereo partly drawn) gave half-life of 8.4

Lab note: COC(=O)N[C@H](C(=O)N1CCC[C@H]1c1ncc(-c2cc(F)c3c(c2)OC(c2ccc4c(c2)OCCC42CC2)n2c-3cc3cc(-c4cnc([C@@H]5CCCN5C(=O)[C@@H](NC(=O)OC)C(C)C)[nH]4)ccc32)[nH]1)C(C)C.O=C(O)C(F)(F)F.O=C(O)C(F)(F)F (stereo partly drawn) gave half-life of 8.5

---

- test: AUC in male Wistar Han rat at 10 mg/kg, po administered as single dose post overnight fasting measured upto 24 hrs by LC-MS/MS analysis
- Assay type: ADME, organism-based
- Design: route oral, dose 10 mg/kg, time <=24
- condition-set: in vivo
readout: AUC at 24 h (µM·h)
A number alone suffices; assume µM·h.

Lab note: COC(=O)N[C@H](C(=O)N1CCC[C@H]1c1ncc(-c2cc(F)c3c(c2)OC(c2ccc4c(c2)OCCC4)n2c-3cc3cc(-c4cnc([C@@H]5CCCN5C(=O)[C@@H](NC(=O)OC)C(C)C)[nH]4)ccc32)[nH]1)C(C)C.Cl.Cl (stereo partly specified) gave AUC at 24 h of 0.42

---

- Tested on: Huh-7
- test: Inhibition of NS5A in Hepatitis C virus subtype 2b infected in human HuH7 cells assessed as reduction in viral replication by luciferase reporter gene assay
- Format: cell-based
readout: EC90 (nM)
A number alone suffices; assume nM.

[
  {
    "molecule": "COC(=O)N[C@H](C(=O)N1CCC[C@H]1c1ncc(-c2cc(F)c3c(c2)OC(c2ccc4c(c2)OC(F)(F)O4)n2c-3cc3cc(-c4cnc([C@@H]5CCCN5C(=O)[C@@H](NC(=O)OC)C(C)C)[nH]4)ccc32)[nH]1)C(C)C (some centres not stated)",
    "value": 5
  }
]

With those in mind, consider the next molecule.
Lab note: COC(=O)N[C@H](C(=O)N1CCC[C@H]1c1ncc(-c2cc(F)c3c(c2)OC(c2ccc4c(c2)OCC[C@H]4C)n2c-3cc3cc(-c4cnc([C@@H]5CCCN5C(=O)[C@@H](NC(=O)OC)C(C)C)[nH]4)ccc32)[nH]1)C(C)C (some centres not stated) gave EC90 of 0.2

---

Some compounds, each annotated with its measured bioavailability.
- test: Oral bioavailability in male Wistar Han rat at 10 mg/kg post overnight fasting measured upto 24 hrs by LC-MS/MS analysis
- Type: ADME, organism-based
- condition-set: in vivo
// unit must come after the numeric part

Lab note: COC(=O)N[C@H](C(=O)N1CCC[C@H]1c1ncc(-c2cc(F)c3c(c2)OC(c2ccc4c(c2)OCCC4)n2c-3cc3cc(-c4cnc([C@@H]5CCCN5C(=O)[C@@H](NC(=O)OC)C(C)C)[nH]4)ccc32)[nH]1)C(C)C.O=C(O)C(F)(F)F.O=C(O)C(F)(F)F (stereo partly drawn) gave bioavailability of 5%

Lab note: COC(=O)N[C@H](C(=O)N1CCC[C@H]1c1ncc(-c2cc(F)c3c(c2)OC(c2ccc4c(c2)OCCC42CC2)n2c-3cc3cc(-c4cnc([C@@H]5CCCN5C(=O)[C@@H](NC(=O)OC)C(C)C)[nH]4)ccc32)[nH]1)C(C)C.O=C(O)C(F)(F)F.O=C(O)C(F)(F)F (stereo partly drawn) gave bioavailability of 2%

Lab note: COC(=O)N[C@H](C(=O)N1CCC[C@H]1c1ncc(-c2cc(F)c3c(c2)OC(c2ccc4c(c2)OC(C)(C)C4)n2c-3cc3cc(-c4cnc([C@@H]5CCCN5C(=O)[C@@H](NC(=O)OC)C(C)C)[nH]4)ccc32)[nH]1)C(C)C.O=C(O)C(F)(F)F.O=C(O)C(F)(F)F (stereo partly drawn) gave bioavailability of 3%

---

- System: Nonstructural protein 5A (Hepatitis C virus), Q5L478 [Y93H]
- Sequence (whole entry): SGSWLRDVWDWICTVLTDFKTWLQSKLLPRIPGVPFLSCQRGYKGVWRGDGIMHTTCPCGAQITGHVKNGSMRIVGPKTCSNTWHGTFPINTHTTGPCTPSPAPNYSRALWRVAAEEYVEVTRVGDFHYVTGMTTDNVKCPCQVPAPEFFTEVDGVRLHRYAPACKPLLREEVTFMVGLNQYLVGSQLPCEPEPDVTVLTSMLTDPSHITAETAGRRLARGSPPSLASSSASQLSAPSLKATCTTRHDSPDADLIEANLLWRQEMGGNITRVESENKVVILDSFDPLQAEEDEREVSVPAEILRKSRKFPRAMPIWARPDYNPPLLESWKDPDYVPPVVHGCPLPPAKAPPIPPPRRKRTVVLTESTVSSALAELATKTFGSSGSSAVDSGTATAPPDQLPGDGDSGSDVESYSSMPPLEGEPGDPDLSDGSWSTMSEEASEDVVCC
- test: Inhibition of NS5A Y93H mutant in Hepatitis C virus subtype 1a infected in human HuH7 cells assessed as reduction in viral replication by luciferase reporter gene assay
- Assay type: cell-based
- condition-set: Huh-7
readout: EC90

[
  {
    "molecule": "COC(=O)N[C@H](C(=O)N1CCC[C@H]1c1ncc(-c2cc(F)c3c(c2)OC(c2ccc4c(c2)O[C@@H](C)CC4)n2c-3cc3cc(-c4cnc([C@@H]5CCCN5C(=O)[C@@H](NC(=O)OC)C(C)C)[nH]4)ccc32)[nH]1)C(C)C (some centres not stated)",
    "readout": "EC90",
    "value": "0.9 nM"
  }
]

With those in mind, consider the next molecule.
Lab note: COC(=O)N[C@H](C(=O)N1CCC[C@H]1c1ncc(-c2cc(F)c3c(c2)OC(c2ccc4cccnc4c2)n2c-3cc3cc(-c4cnc([C@@H]5CCCN5C(=O)[C@@H](NC(=O)OC)C(C)C)[nH]4)ccc32)[nH]1)C(C)C (some centres not stated) gave EC90 of 4 nM
